// data source = patent US6262064A

# tested on: 5HT1 serotonin receptor
# test name: Serotonin (5HT1) binding assay
# setup conditions: read-out: Ki of reference compounds, 5HT1; Table VII
attribute measured: Ki (nM)

NCCc1c[nH]c2ccc(O)cc12 [Serotonin, reference compound] | 4.6
COc1ccc2[nH]cc(CCN)c2c1 [5-Methoxytryptamine, reference compound] | 45.8

====

# tested on: 5HT1A serotonin receptor (Bos taurus)
# Construct: bovine hippocampus; from tissue; host or cells: bovine hippocampus
# Sequence (F6Q2H9 1-422): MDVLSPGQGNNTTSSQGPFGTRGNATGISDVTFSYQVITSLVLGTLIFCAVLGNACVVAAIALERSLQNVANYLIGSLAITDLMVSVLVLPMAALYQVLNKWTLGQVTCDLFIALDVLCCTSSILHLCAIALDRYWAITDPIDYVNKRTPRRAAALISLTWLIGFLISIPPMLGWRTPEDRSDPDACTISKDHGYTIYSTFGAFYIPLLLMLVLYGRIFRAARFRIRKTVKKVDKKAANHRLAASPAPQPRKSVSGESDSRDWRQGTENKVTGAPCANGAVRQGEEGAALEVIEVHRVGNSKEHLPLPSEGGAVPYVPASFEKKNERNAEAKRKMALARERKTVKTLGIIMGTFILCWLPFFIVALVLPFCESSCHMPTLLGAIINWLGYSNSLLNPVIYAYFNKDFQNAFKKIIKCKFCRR
# test name: Serotonin (5HT1A) binding assay ([3H]-8-OH-DPAT)
# Parameters: species or system bovine
# setup conditions: 5-HT1A receptor binding affinity Ki, Table III; bovine hippocampus
pKi: −log10 of the molar value.
Catalogue of molecules with associated pKi
attribute measured: pKi

Oc1cccc2c1CC[C@@H]1[C@@H]2CCCN1CCc1ccccc1 (single isomer, unassigned) [trans-(+)-25] | 6.39
Oc1cccc2c1CC[C@@H]1[C@@H]2CCCN1CCc1ccccc1 (single isomer, unassigned) [trans-(-)-25] | 7.96
Oc1ccc2c(c1O)CC[C@H]1[C@H]2CCCN1CCc1ccccc1 (single isomer, unassigned) [trans-(+)-9] | 6.04
Oc1ccc2c(c1O)CC[C@H]1[C@H]2CCCN1CCc1ccccc1 (single isomer, unassigned) [trans-(-)-9] | 7.17

====

# tested on: beta-adrenergic receptor
# test name: Beta-adrenergic (non-selective) binding assay ([3H]DHA)
# Set-up: species or system rat
# setup conditions: assay characterization; read-out: Ki characterizing the beta assay
attribute measured: Ki (nM)

C=CCc1ccccc1OCC(O)CNC(C)C (stereo not shown) | 1.74

====

# tested on: 5HT2 serotonin receptor (Rattus norvegicus)
# Construct: rat cortical membranes; from tissue; host or cells: rat cortex membranes
# Sequence (P14842 whole entry): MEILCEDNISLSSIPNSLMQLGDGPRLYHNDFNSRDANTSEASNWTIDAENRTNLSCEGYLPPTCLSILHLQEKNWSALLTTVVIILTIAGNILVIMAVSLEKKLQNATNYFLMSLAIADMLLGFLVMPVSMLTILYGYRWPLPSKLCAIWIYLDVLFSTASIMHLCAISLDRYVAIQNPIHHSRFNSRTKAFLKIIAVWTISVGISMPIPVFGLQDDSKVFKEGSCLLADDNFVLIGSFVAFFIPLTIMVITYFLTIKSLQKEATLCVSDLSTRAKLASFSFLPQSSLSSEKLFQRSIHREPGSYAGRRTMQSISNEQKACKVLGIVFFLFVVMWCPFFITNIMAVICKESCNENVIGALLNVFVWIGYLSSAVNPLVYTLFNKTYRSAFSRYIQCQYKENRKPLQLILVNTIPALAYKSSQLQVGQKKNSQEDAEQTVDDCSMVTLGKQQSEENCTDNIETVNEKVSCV
# test name: Serotonin (5HT2) binding assay ([3H]Ketanserin)
# setup conditions: 5-HT2 receptor binding affinity Ki
# Method: The final ligand concentration was 1.0 nM.
pKi: −log10 of the molar value.
Reported pKi values follow for various compounds
attribute measured: pKi

Oc1cccc2c1CC[C@@H]1[C@@H]2CCCN1CCc1ccccc1 (single isomer, unassigned) [trans-(-)-25] | 6.39
Oc1cccc2c1CC[C@@H]1[C@@H]2CCCN1CCc1ccccc1 (single isomer, unassigned) [trans-(+)-25] | 8.02
Oc1cccc2c1CC[C@H]1[C@H]2CCCN1CCc1ccccc1 (relative stereo) [trans-25] | 7.57

====

Parameter: pKi. Scope: all listed entries.
# tested on: alpha2-adrenergic receptor
# test name: Alpha2-adrenergic (non-selective) binding assay ([3H]RX 781094)
# Parameters: species or system rat
# setup conditions: Table III; rat cortical membranes; read-out: α2 receptor binding affinity Ki
pKi: −log10 of the molar value.
attribute measured: pKi

Oc1cccc2c1CC[C@H]1[C@@H]2CCCN1CCc1ccccc1 (relative stereo) [cis-25] | 9.57
Oc1cccc2c1CC[C@@H]1[C@@H]2CCCN1CCc1ccccc1 (single isomer, unassigned) [trans-(+)-25] | 6.36
Oc1ccc2c(c1O)CC[C@@H]1[C@H]2CCCN1CCc1ccccc1 (relative stereo) [cis-9] | 7.57
Oc1ccc2c(c1O)CC[C@@H]1[C@@H]2CCCN1CCc1ccccc1 (relative stereo) [trans-9] | 7.66
Oc1ccc2c(c1O)CC[C@H]1[C@H]2CCCN1CCc1ccccc1 (single isomer, unassigned) [trans-(-)-9] | 8.05
Oc1cccc2c1CC[C@@H]1[C@@H]2CCCN1CCc1cccs1 (relative stereo) [trans-31] | 8.14
Oc1ccc2c(c1O)CC[C@@H]1[C@H]2CCCN1CCc1ccccc1 (single isomer, unassigned) [cis-(-)-9] | 7.13
